Test system: HIV-1 constructs containing mutant IN Y143R
assay_details: microbe, parasite or virus in culture
Format: cell-based
measurement_setup: Human immunodeficiency virus 1; Table 3; read-out: EC50 (nM, IN Mutants) Y143R
Kindly apply the following: yes if EC50 is less than 30 nM, no in every other case.

Inquiry: Is the reported EC50 for O=C(NCc1ccc(F)c(F)c1)c1cc2cccnc2n(O)c1=O [XZ392] strictly below 30 nM?
Reply text: no

Inquiry: Is the reported EC50 for O=C(NCc1ccc(F)cc1)c1cc2cccnc2n(O)c1=O [XZ393] strictly below 30 nM?
Reply text: yes

Inquiry: Is the reported EC50 for O=C(NCc1ccc(F)c(Cl)c1)c1cc2cccnc2n(O)c1=O [XZ391] strictly below 30 nM?
Reply text: no

Inquiry: Is the reported EC50 for O=C(NCc1ccc(F)cc1F)c1c(NCCO)c2cccnc2n(O)c1=O [XZ378] strictly below 30 nM?
Reply text: yes

Inquiry: Is the reported EC50 for O=C(NCc1ccc(F)cc1F)c1c(O)c2cccnc2n(O)c1=O [XZ351] strictly below 30 nM?
Reply text: yes

Inquiry: Is the reported EC50 for COC(=O)CNc1c(C(=O)NCc2ccc(F)cc2F)c(=O)n(O)c2ncccc12 [XZ379] strictly below 30 nM?
Reply text: yes

Inquiry: Is the reported EC50 for N#Cc1ccc(-c2ccc(Nc3c(C(=O)NCc4ccc(F)cc4F)c(=O)n(O)c4ncccc34)cc2)cc1 [XZ388] strictly below 30 nM?
Reply text: no

Inquiry: Is the reported EC50 for O=C(NCc1ccc(F)cc1F)c1cc2cccnc2n(O)c1=O [XZ390] strictly below 30 nM?
Reply text: yes

Inquiry: Is the reported EC50 for COC(=O)[C@@H](C)Nc1c(C(=O)NCc2ccc(F)cc2F)c(=O)n(O)c2ncccc12 [XZ395] strictly below 30 nM?
Reply text: yes

Inquiry: Is the reported EC50 for O=C(NCc1ccc(F)cc1F)c1c(NCCCCc2ccccc2)c2cccnc2n(O)c1=O [XZ383] strictly below 30 nM?
Reply text: no

Inquiry: Is the reported EC50 for CC(=O)OCCNc1c(C(=O)NCc2ccc(F)cc2F)c(=O)n(O)c2ncccc12 [XZ402] strictly below 30 nM?
Reply text: yes

Inquiry: Is the reported EC50 for O=C(NCc1ccc(F)cc1F)c1c(NC2CCCCCC2)c2cccnc2n(O)c1=O [XZ376] strictly below 30 nM?
Reply text: yes
